The origin of these recorded values is the supplement of paper PMC6897291.

# Tested on: U-2932
# test-description: growth inhibition by drug plus 177Lu-lilotomab satetraxetan (1 - RLU/untreated control) (fraction); higher = stronger inhibition
# test-parameters: 10 nM; time (day): 5; 177Lu-lilotomab satetraxetan 1 ug/ml
Documented growth inhibition by drug plus 177Lu-lilotomab satetraxetan across a set of compounds
Please give the numeric answer without any surrounding text.

// worked examples, growth inhibition by drug plus 177Lu-lilotomab satetraxetan included
O=C(Oc1ccc([N+](=O)[O-])cc1)N1CCC(C(O)(c2ccc3c(c2)OCO3)c2ccc3c(c2)OCO3)CC1 ... 0.0178
N.N.[Cl][Pt][Cl] [Cisplatin] ... 0.0625
CC1=C2C[C@H]3[C@@H](CC=C4C[C@@H](O)CC[C@@]43C)[C@@H]2CC[C@]12O[C@@H]1C[C@H](C)CN[C@H]1[C@H]2C ... 0.107

Tell us which growth inhibition by drug plus 177Lu-lilotomab satetraxetan value is on record for C=C1C[C@@H]2[C@H](CC[C@]3(C)C(=O)CC[C@@H]23)[C@@]2(C)C=CC(=O)C=C12
0.138

Tell us which growth inhibition by drug plus 177Lu-lilotomab satetraxetan value is on record for Cc1ccccc1-n1c(Cn2cnc3c(N)ncnc32)nc2cccc(C)c2c1=O
0.107
